Measured normalised response values are reported for all entries that follow.
System: Hs578T
protocol: normalised response (% of control), CellTiter-Glo; higher = more viable cells (100 = DMSO, 0 = benzethonium chloride kill control)
condition parameters: incubation time: 72 h
readout label: normalised response (%)

- compound: "Nc1nc(OCc2cc(Br)cs2)c2[nH]cnc2n1 [Lomeguatrib] (1 nM)"
  readout label: "normalised response"
  readout unit: "%"
  experimental value: 99
- compound: "CC(C)(C#N)c1cc(Cn2cncn2)cc(C(C)(C)C#N)c1 [Anastrozole] (10 nM)"
  readout label: "normalised response"
  readout unit: "%"
  experimental value: 105
- compound: "NS(=O)(=O)OC[C@@H]1C[C@@H](n2ccc3c(N[C@H]4CCc5ccccc54)ncnc32)C[C@@H]1O [Pevonedistat] (10 nM)"
  readout label: "normalised response"
  readout unit: "%"
  experimental value: 103
